The entries below are paired with their reported Mean % WT Binding.
Molecular target: human CD33 T42A (human, UniProt P20138 18-364)
Sequence (P20138 18-364 T42A limits assumed): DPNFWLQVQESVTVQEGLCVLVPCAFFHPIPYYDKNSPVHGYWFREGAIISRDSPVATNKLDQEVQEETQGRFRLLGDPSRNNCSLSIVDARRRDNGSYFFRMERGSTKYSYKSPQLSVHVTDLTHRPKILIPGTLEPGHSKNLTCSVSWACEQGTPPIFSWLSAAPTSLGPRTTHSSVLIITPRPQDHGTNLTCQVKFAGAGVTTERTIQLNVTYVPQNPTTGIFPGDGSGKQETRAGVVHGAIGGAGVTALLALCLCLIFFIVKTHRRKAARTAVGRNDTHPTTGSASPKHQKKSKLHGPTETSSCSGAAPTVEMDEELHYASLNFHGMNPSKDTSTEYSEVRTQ
Assay: alanine scan, flow cytometry;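 also: HEK293-T cells transiently expressing single-residue alanine mutants of CD33 (alanine swapped to serine), antibody binding read by fluorescence in duplicate, background-subtracted, expressed relative to wild-type CD33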
Return type: number; implicit unit % WT.

Examples from the recorded data:
[
  {
    "binder": "Refmab #3 (antibody, V domains shown, Full-length format is human IgG1 Fc silent (PG-LALA); The alanine scan used IgG or Fab) VH: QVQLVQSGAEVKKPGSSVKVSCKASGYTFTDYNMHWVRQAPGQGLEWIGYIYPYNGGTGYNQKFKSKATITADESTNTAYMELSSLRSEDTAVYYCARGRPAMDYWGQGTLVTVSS VL: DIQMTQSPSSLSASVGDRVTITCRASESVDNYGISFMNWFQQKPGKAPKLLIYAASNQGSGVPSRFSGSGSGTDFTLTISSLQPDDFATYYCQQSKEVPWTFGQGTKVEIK",
    "reading_unit": "% WT",
    "Mean % WT Binding": 198
  },
  {
    "binder": "Refmab #1 (antibody, V domains shown, Full-length format is human IgG1 (Absolute Antibody Ab00283-10.0); The alanine scan used IgG or Fab; also called hP67.6) VH: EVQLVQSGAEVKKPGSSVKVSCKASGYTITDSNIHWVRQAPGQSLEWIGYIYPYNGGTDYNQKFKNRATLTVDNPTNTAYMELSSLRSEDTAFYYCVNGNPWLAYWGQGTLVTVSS VL: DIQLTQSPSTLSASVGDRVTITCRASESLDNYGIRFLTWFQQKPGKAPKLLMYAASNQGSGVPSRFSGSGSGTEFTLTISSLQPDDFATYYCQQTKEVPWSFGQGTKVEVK",
    "reading_unit": "% WT",
    "Mean % WT Binding": 105
  },
  {
    "binder": "Refmab #4 (antibody, V domains shown, Full-length format is human IgG1 Fc silent (PG-LALA); The alanine scan used IgG or Fab) VH: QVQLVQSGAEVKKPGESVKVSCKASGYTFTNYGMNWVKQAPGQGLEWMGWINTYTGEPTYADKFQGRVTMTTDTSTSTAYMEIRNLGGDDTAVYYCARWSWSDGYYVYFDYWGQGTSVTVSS VL: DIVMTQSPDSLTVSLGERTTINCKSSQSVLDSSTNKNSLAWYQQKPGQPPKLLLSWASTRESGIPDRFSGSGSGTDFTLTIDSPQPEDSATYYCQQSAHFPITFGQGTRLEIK",
    "reading_unit": "% WT",
    "Mean % WT Binding": 67.4
  }
]

We now examine a further binder.
*Q* For Refmab #2 (antibody, V domains shown, Full-length format is human IgG1 Fc silent (PG-LALA); The alanine scan used IgG or Fab) VH: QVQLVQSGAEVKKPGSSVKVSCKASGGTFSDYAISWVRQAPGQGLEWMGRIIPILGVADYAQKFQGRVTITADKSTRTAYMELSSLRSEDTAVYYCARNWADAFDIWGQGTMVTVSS VL: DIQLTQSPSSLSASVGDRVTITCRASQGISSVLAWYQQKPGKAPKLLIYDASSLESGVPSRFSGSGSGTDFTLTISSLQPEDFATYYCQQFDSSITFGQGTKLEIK , write its Mean % WT Binding.
*A* 112

Taken from patent US20260242735A1.
